// provenance: PubChem BioAssay AID504452

Experimental target: Peroxisome proliferator-activated receptor gamma (Homo sapiens) (UniProt P37231)
Sequence (P37231 whole entry, looked up): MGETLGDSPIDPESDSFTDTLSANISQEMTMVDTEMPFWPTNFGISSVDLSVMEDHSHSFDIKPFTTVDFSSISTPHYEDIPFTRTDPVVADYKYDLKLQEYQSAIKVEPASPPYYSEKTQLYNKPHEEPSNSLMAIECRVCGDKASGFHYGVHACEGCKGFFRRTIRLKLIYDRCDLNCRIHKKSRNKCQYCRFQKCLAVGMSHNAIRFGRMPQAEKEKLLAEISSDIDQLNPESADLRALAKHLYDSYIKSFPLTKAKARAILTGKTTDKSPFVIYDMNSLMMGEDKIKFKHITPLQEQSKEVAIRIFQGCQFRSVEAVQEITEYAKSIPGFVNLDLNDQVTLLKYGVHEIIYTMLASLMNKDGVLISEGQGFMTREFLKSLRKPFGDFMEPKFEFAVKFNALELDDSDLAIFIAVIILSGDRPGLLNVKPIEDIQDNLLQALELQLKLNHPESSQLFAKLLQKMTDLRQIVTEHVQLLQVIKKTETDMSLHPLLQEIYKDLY
Experiment: partial agonism at human PPARgamma receptor – cell-based, luciferase reporter, luminescence, primary screen (AID 504452);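 further: Cos-1 cells carrying PPARgamma and a response element luciferase reporter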
Condition: cell-based PPARg luciferase reporter, at 5 µM, stronger effect = higher value; measured here: relative to full agonist control
Assign MET to entries whose activation (% of full agonist control) meets or exceeds 30%; assign NOT MET to the rest.

Worked cases, answers included:
{"columns": ["Compound", "Classification"],
 "data": [
  ["COc1ccc(CN(C)C(=O)[C@H](Cc2ccccc2)NC(=O)c2ccco2)c(OC)c1", "MET"],
  ["O=C(NC(Cc1ccccc1)C(=O)O)/C(=C/c1cccc([N+](=O)[O-])c1)NC(=O)c1ccco1 (stereo not drawn)", "MET"],
  ["CC(Oc1ccc(F)cc1)C(=O)Nc1cc(S(=O)(=O)N2CCCCC2)ccc1N1CCOCC1 (stereo not drawn)", "MET"],
  ["O=C(Nc1cc(Cl)ccc1O)c1cc2n(n1)C(C(F)(F)F)CC(c1ccc3c(c1)OCO3)N2 (stereo not drawn)", "MET"],
  ["Cc1ccc(/C(O)=C2/C(=O)C(=O)N(c3ccccn3)C2c2cccc([N+](=O)[O-])c2)cc1 (stereo not drawn)", "MET"],
  ["CN(C(=O)CS(=O)(=O)c1cn(CC(=O)N2CCCC2)c2ccccc12)c1ccccc1", "NOT MET"],
  ["O=C(c1ccc(F)cc1)c1cn(Cc2ccc(F)cc2)c2cc3c(cc2c1=O)OCCO3", "MET"],
  ["O=C(CN1C(=O)/C(=C/c2ccccc2F)Sc2ccccc21)NCC1CCCO1 (stereo not drawn)", "MET"]
]}

stdin: Check this compound for activation (% of full agonist control) at or above 30%: COc1cc(CN2CCCC(N3CCN(c4ccc(F)cc4)CC3)C2)ccc1F (stereo not drawn)
stdout: MET

stdin: Check this compound for activation (% of full agonist control) at or above 30%: O=C1C(=O)N(CC2CCCO2)C(c2ccco2)/C1=C(/O)c1ccc(F)cc1 (stereo not drawn)
stdout: NOT MET

stdin: Check this compound for activation (% of full agonist control) at or above 30%: `COc1ccc(-c2nn(-c3ccccc3)cc2/C=C2/SC(=S)N(CCC(=O)O)C2=O)c(C)c1`
stdout: MET

stdin: Check this compound for activation (% of full agonist control) at or above 30%: O=C(NCc1ccccc1F)C(=O)NCC1CCCN1S(=O)(=O)c1ccccc1 (stereo not drawn)
stdout: NOT MET

stdin: Check this compound for activation (% of full agonist control) at or above 30%: `O=C(CSc1nc(=O)n(CCN2CCOCC2)c2c1CCCC2)Nc1cccc([N+](=O)[O-])c1`
stdout: MET

====

Experimental target: Peroxisome proliferator-activated receptor gamma (Homo sapiens)
Experiment: partial agonism at human PPARgamma receptor – cell-based, luciferase reporter, luminescence, primary screen (AID 504452);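 further: Cos-1 cells carrying PPARgamma and a response element luciferase reporter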
Condition: cell-based PPARg luciferase reporter, at 5 µM, stronger effect = higher value
Assign satisfied to entries whose activation (% of partial agonist control) meets or exceeds 70%; assign not satisfied to the rest.

stdin: Check this molecule for activation (% of partial agonist control) at or above 70%: `Cn1cc(CNCc2cn[nH]c2-c2ccc(F)cc2)c(-c2ccc3c(c2)OCCO3)n1`
stdout: not satisfied

stdin: Check this molecule for activation (% of partial agonist control) at or above 70%: O=S(=O)(NCC(c1ccc2c(c1)OCO2)N1CCOCC1)c1ccc(F)cc1 (centres undefined)
stdout: satisfied

stdin: Check this molecule for activation (% of partial agonist control) at or above 70%: O=C(NC(Cc1ccccc1)C(=O)O)/C(=C/c1cccc([N+](=O)[O-])c1)NC(=O)c1ccco1 (centres undefined)
stdout: satisfied

stdin: Check this molecule for activation (% of partial agonist control) at or above 70%: `Cc1cccc(Cn2cc3c(=O)n(Cc4cccc(F)c4)nc-3c3ccccc32)c1`
stdout: satisfied

stdin: Check this molecule for activation (% of partial agonist control) at or above 70%: `Cc1c(CNCCC2=CCCCC2)c(C(=O)O)c(C)n1Cc1ccccc1`
stdout: not satisfied

stdin: Check this molecule for activation (% of partial agonist control) at or above 70%: `O=C(COc1ccc([N+](=O)[O-])cc1)Nc1cccc(C(=O)Nc2ccccc2C(=O)O)c1`
stdout: not satisfied

stdin: Check this molecule for activation (% of partial agonist control) at or above 70%: `O=C(Cn1nc(Cc2ccncc2)c2ccccc2c1=O)N1CCN(C(=O)c2ccco2)CC1`
stdout: satisfied

stdin: Check this molecule for activation (% of partial agonist control) at or above 70%: `O=C(CSc1nnc(Cc2cc(=O)[nH]c(=O)[nH]2)n1-c1ccc(Cl)cc1)N1CCc2ccccc21`
stdout: satisfied

stdin: Check this molecule for activation (% of partial agonist control) at or above 70%: O=C(NCCCn1ccnc1)C(=O)NCC(c1ccco1)N1CCN(c2ccccc2)CC1 (centres undefined)
stdout: not satisfied

stdin: Check this molecule for activation (% of partial agonist control) at or above 70%: COc1ccc(S(=O)(=O)N2CCCCC2)cc1NC(=O)C1CSC2(C)CCC(=O)N12 (centres undefined)
stdout: satisfied

====

Experimental target: Peroxisome proliferator-activated receptor gamma (Homo sapiens)
Experiment: partial agonism at human PPARgamma receptor – cell-based, luciferase reporter, luminescence, primary screen (AID 504452);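 further: Cos-1 cells carrying PPARgamma and a response element luciferase reporter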
Condition: cell-based PPARg luciferase reporter, at 5 µM
Calls of active or inactive are those of the source. Cut-off read from the data, not from the text of the source: active = activation above about 85%; inactive = the rest.
A correct response names exactly one class from active, inactive

Worked cases, answers included:
{"columns": ["Compound", "Classification"],
 "data": [
  ["Cc1ccc(S(C)=O)cc1-n1c(=O)n(Cc2ccccc2)c(=O)c2[nH]cnc21 (configuration not stated)", "inactive"],
  ["Cc1c(-n2cc(C(=O)c3cc(F)ccc3O)cc(C#N)c2=O)c(=O)n(-c2ccccc2)n1C", "active"]
]}

stdin: Query: recorded result category for O=C(Cn1c(=O)c(=O)n(Cc2ccccc2)c2ccc(Cl)cc21)NCC1CCCO1 (configuration not stated) in this test
stdout: inactive

stdin: Query: recorded result category for CC(Oc1ccc(F)cc1)C(=O)Nc1cc(S(=O)(=O)N2CCOCC2)ccc1N1CCCCC1 (configuration not stated) in this test
stdout: inactive

stdin: Query: recorded result category for Cc1ccc2[nH]c(=O)c(CN(Cc3cccs3)Cc3nnnn3CC3CCCO3)cc2c1 (configuration not stated) in this test
stdout: active

stdin: Query: recorded result category for O=C(NC(Cc1ccccc1)C(=O)O)/C(=C/c1ccc(Cl)cc1)NC(=O)c1ccco1 (configuration not stated) in this test
stdout: inactive

stdin: Query: recorded result category for `COc1ccc2c(c1)c(=O)c(C(=O)c1ccc(C)cc1)cn2CC(=O)Nc1ccc(F)cc1` in this test
stdout: active

====

Experimental target: Peroxisome proliferator-activated receptor gamma (Homo sapiens) (UniProt P37231)
Experiment: partial agonism at human PPARgamma receptor – cell-based, luciferase reporter, luminescence, primary screen (AID 504452);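 further: Cos-1 cells carrying PPARgamma and a response element luciferase reporter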
Condition: cell-based PPARg luciferase reporter, at 5 µM, stronger effect = higher value; measured here: relative to full agonist control
This listing pairs compounds with measured activation (% of full agonist control).
Supply the numeric figure in %, leaving out any unit text.

Solved cases (2 shown):
{"columns": ["Compound", "Unit of measurement", "activation (% of full agonist control)"],
 "data": [
  ["O=C(Cc1cccc(C(F)(F)F)c1)Nc1cc(S(=O)(=O)N2CCOCC2)ccc1N1CCCC1", "%", 31.4],
  ["COc1ccc(N2C(=O)C(=O)/C(=C(/O)c3ccc(C)cc3)C2c2cccnc2)cc1 (stereo not drawn)", "%", 28.8]
]}

As a next step, examine the compound that follows.
Result for O=C1C(=O)N(Cc2cccnc2)C(c2cccc(F)c2)/C1=C(/O)c1ccc2c(c1)OCO2 (stereo not drawn) , tested on Peroxisome proliferator-activated receptor gamma (Homo sapiens) (UniProt P37231), activation (% of full agonist control): 35.2

====

Experimental target: Peroxisome proliferator-activated receptor gamma (Homo sapiens)
Experiment: partial agonism at human PPARgamma receptor – cell-based, luciferase reporter, luminescence, primary screen (AID 504452);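 further: Cos-1 cells carrying PPARgamma and a response element luciferase reporter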
Condition: cell-based PPARg luciferase reporter, at 5 µM, stronger effect = higher value
Assign TRUE to entries whose activation (% of partial agonist control) meets or exceeds 80%; assign FALSE to the rest.

Worked cases, answers included:
{"columns": ["Molecule", "Classification"],
 "data": [
  ["O=C(Nc1cc(Cl)ccc1O)c1cc2n(n1)C(C(F)(F)F)CC(c1ccc3c(c1)OCO3)N2 (stereo unspecified)", "FALSE"],
  ["Cc1cccn2c(=O)c(/C=C(\\C#N)C(=O)NC3CCS(=O)(=O)C3)c(Oc3ccc(F)cc3)nc12 (stereo unspecified)", "FALSE"],
  ["CCC(=O)Nc1nonc1-c1nc2ccccc2n1Cc1cccc2ccccc12", "FALSE"],
  ["O=C(CSc1nc(=O)n(CCCN2CCOCC2)c2c1CCC2)Nc1cccc(F)c1", "TRUE"],
  ["COc1ccc(/C(O)=C2/C(=O)C(=O)N(Cc3ccco3)C2c2cccs2)cc1 (stereo unspecified)", "FALSE"]
]}

stdin: Check this molecule for activation (% of partial agonist control) at or above 80%: `COc1cccc(NC(=O)c2ccc3c(c2)N(CC(=O)N2CCOCC2)C(=O)C(C)(C)O3)c1`
stdout: FALSE

stdin: Check this molecule for activation (% of partial agonist control) at or above 80%: COc1ccc(/C=C(\NC(=O)c2ccco2)C(=O)NC(Cc2ccccc2)C(=O)O)cc1 (stereo unspecified)
stdout: FALSE

stdin: Check this molecule for activation (% of partial agonist control) at or above 80%: O=C(c1cc(-c2ccco2)nc2ccccc12)N1CCCC(C(F)(F)F)C1 (stereo unspecified)
stdout: FALSE

stdin: Check this molecule for activation (% of partial agonist control) at or above 80%: COc1cccc(C2CC(=O)N3CN(c4ccccc4F)CSC3=C2C#N)c1 (stereo unspecified)
stdout: FALSE

stdin: Check this molecule for activation (% of partial agonist control) at or above 80%: `O=C(Cc1cccc(C(F)(F)F)c1)Nc1cc(S(=O)(=O)N2CCOCC2)ccc1N1CCCC1`
stdout: FALSE
